Items are presented alongside their recorded Potency.
System: Lysosomal alpha-glucosidase (Homo sapiens) (UniProt P10253)
Assay notes: qHTS Assay for Activators of Human alpha-Glucosidase as a Potential Chaperone Treatment of Pompe Disease; further: potency means the concentration at half of the fitted maximal effect; nearly all actives have a fitted effect of over 80% in size
Condition parameters: purified enzyme, 4-MU-alpha-glucoside fluorescence, 20 min; series mostly up to 76.9 µM
The campaign covered roughly 200,000 compounds. About 720 (0.36%) were called active. Roughly 8% stayed inconclusive and do not appear here. Some of the results follow.

Q. Answer with reported Potency of CCOC(=O)C1CCN(C(=O)c2cc3c(=O)n4ccccc4nc3n2C)CC1
A. 39.8 µM (active)

Q. Please give the documented Potency of CC(C)(C)OC(=O)c1c(N)n(CCCN2CCCC2=O)c2nc3ccccc3nc12
A. 31.6 µM (active)

Q. Name the recorded Potency of the item COC(=O)C1=CNC=C(C(=O)OC)C1c1ccccc1Cl in your answer.
A. 31.6 µM (active)

Q. Answer with the recorded Potency of COCCN1C=C(C(=O)OC)C(c2ccccc2C(F)(F)F)C(C(=O)OC)=C1 only.
A. 35.5 µM (active)

Q. Query Potency for O=C(O)c1cccc(NC(=O)C2C3C=CC(C3)C2C(=O)O)c1 (configuration not stated)
A. 31.6 µM (active)

Q. Recall and state the measured Potency for O=C(c1cc2c(=O)n3ccccc3nc2s1)N1CCN(Cc2ccc3c(c2)OCO3)CC1 .
A. 35.5 µM (active)

Q. Look up and report measured Potency for this entry: Cn1c(C(=O)N2CCc3ccccc3C2)cc2c(=O)n3ccccc3nc21
A. 31.6 µM (active)

---

System: Lysosomal alpha-glucosidase (Homo sapiens)
Assay notes: qHTS Assay for Activators of Human alpha-Glucosidase as a Potential Chaperone Treatment of Pompe Disease; further: potency means the concentration at half of the fitted maximal effect; nearly all actives have a fitted effect of over 80% in size
Condition parameters: purified enzyme, 4-MU-alpha-glucoside fluorescence, 20 min; series mostly up to 76.9 µM
Among all 200,000 compounds or so, about 720 (0.36%) were called active. Roughly 8% stayed inconclusive and do not appear here. The list shows a part of the results.
Measured quantity: Potency

Worked examples, 5 compounds total:
>>> value_observed("COc1ccccc1[C@@H]1C(c2cccc(Cl)c2)=NN(c2ccc(Br)cc2)[C@H]1C(=O)N1CCOC1=O")
"31.6 µM (active)"
>>> value_observed("Cc1cc(N2CCC(C)CC2)nc2ccc(N3C(=O)CCC3=O)cc12")
"31.6 µM (active)"
>>> value_observed("COCCn1c(=O)[nH]c2cc(C(=O)NC(C)C)ccc2c1=O")
"35.5 µM (active)"
>>> value_observed("COC(=O)C1=CN(C)C=C(C(=O)OC)C1c1ccsc1")
"35.5 µM (active)"
>>> value_observed("CCOC(=O)c1c(C)nc(C)c(C(=O)OCC)c1-c1ccccc1")
"31.6 µM (active)"

Q. Supply recorded Potency for Cc1c(O)c(CN2CCCC2)cc2c3c(c(=O)oc12)CCC3 here.
A. 39.8 µM (active)

Q. Entry CCN1C=C(C(=O)OC)C(c2cccc(OC)c2OC)C(C(=O)OC)=C1 needs its Potency filled in; supply it.
A. 35.5 µM (active)

Q. Answer with reported Potency of Cc1cccc(C2=NN(c3ccc(Br)cc3)[C@@H](C(=O)N3CCOC3=O)[C@@H]2c2ccc(F)cc2)c1
A. 31.6 µM (active)

Q. Given the compound COc1ccc(CCNC(=O)CSc2nc(-c3ccc(OC)c(OC)c3)ccc2C#N)cc1 , write its reported Potency.
A. 28.2 µM (active)

Q. Give reported Potency value for CCCSc1nc2sc3c(c2c(=O)[nH]1)CCN(Cc1ccccc1)C3
A. 31.6 µM (active)

Q. Annotate the compound CCOCCCn1c(=NC(C)=O)c(C(=O)OCC)cc2c(=O)n3ccccc3nc21 with its measured Potency.
A. 39.8 µM (active)
